- System: M14
- method_description: NCI tumour cell line growth inhibition, 48 h
Active and inactive are the calls of the source. Rule as the data show it: active = GI50 up to about 1.1 µM and inactive = higher.
Permitted responses: active, inactive

Query :: Which result was noted for this compound in the test: CCOC(=O)C(Cc1cn(S(=O)(=O)c2ccccc2)c2ccccc12)(NC(C)=O)C(=O)OCC
Result :: inactive

Query :: # lookup: test call for O=C1N[C@@H]([C@H]2CC[C@H](Cl)CN2)C(=O)N[C@H]1[C@H]1CC[C@H](Cl)CN1
Result :: active

Query :: Could you please tell me the result logged for O=C(N/N=C\C(F)(F)F)c1ccncc1 in this assay?
Result :: inactive

Query :: Please state the recorded outcome for this compound: CCOC(=O)NC(=O)c1cn(CCNCCO)c(=O)[nH]c1=O
Result :: inactive

Query :: Which result was noted for this compound in the test: CCCCCCCCCCCC/C=C\CC[C@@H](O)[C@H](O)CC[C@H](O)[C@@H]1CC[C@@H](CCCCCCCC2=C[C@H](C)OC2=O)O1 [GIGANTRIONENIN]
Result :: inactive

Query :: Which outcome did this test record for the compound S=C(N/N=C(/c1ccccc1)c1ccccn1)Nc1cccc(Cl)c1 ?
Result :: active

Query :: Hello, I am checking results. What call was entered for O=S(=O)(/C=C/C=C/S(=O)(=O)c1ccccc1)c1ccccc1 ?
Result :: active

Query :: I would be grateful if you could indicate the recorded call for CCN1C(=O)/C(=C\c2coc3ccccc3c2=O)SC1=S .
Result :: inactive

Query :: I'd appreciate the recorded outcome for Cc1cc(C)c(/C=N/NS(=O)(=O)c2ccccc2)c(C)c1 from this test.
Result :: inactive

Query :: Entry COc1ccc(N2C(=O)C3c4[nH]c5ccccc5c4C4CCCCC4C3C2=O)cc1 (configuration not stated) : call = ?
Result :: inactive

Query :: So what was the verdict on Cc1cc(S(=O)(=O)Nc2nc(N)n(-c3cnc4ccccc4n3)n2)c(S)cc1Cl in this test?
Result :: inactive

Query :: For this compound, state the assay outcome: Cc1cn(C2CC(N=[N+]=[N-])C(CO[Si](C)(C)C(C)(C)C)O2)c(=O)[nH]c1=O (configuration not stated)
Result :: inactive

Query :: How did this test come out for CCCCCC(=O)NC(=S)Nc1nnn[nH]1 ?
Result :: inactive

Query :: I would be grateful if you could indicate the recorded call for Cc1cc(N(CCC#N)CCC#N)ccc1C(/N=N/c1ccc([N+](=O)[O-])cc1)=N\NC(=O)c1cc(Cl)ccc1C(=O)c1ccccc1 .
Result :: inactive

Query :: Any idea what this test logged for O=C1CCC2CCc3cccc4oc1c2c34 (configuration not stated) ?
Result :: inactive

Query :: How was Nc1nc(O)nc2snnc12 classified in this test?
Result :: inactive

Query :: Please share the test call associated with N#CC(C(=O)CCC(=O)Nc1ccc(Cl)c(Cl)c1)c1ccccc1 (configuration not stated) .
Result :: inactive

Query :: Could you please tell me the result logged for N#CCCN(CCC#N)CCN(CCN(CCC#N)CCC#N)CCN(CCC#N)CCC#N in this assay?
Result :: inactive

Query :: State the result this test recorded for N=C(N)N/N=C(\c1ccc(F)cc1)c1ccc(C(F)(F)F)cc1 .
Result :: active

Query :: What classification did COc1nc(N)nc2c1ncn2C1CC(O)C(CO)O1 (configuration not stated) end up with in this test?
Result :: inactive

Query :: Given CC(C)(C)OC(=O)NC(CSCc1ccc(C(=O)c2ccccc2)cc1)C(=O)N1CCN(CCCCN2c3ccccc3Sc3cc(N=[N+]=[N-])ccc32)CC1 (configuration not stated) , state the outcome it received in this test.
Result :: inactive

Query :: Recorded call for CC(=O)/N=C1\C=C(NC(C)=O)C(=O)c2ccccc21 ?
Result :: inactive

Query :: Which result was noted for this compound in the test: O=C(CC(=O)N1N=C(N2c3ccccc3Sc3ccccc32)CC1c1ccccc1)Nc1ccccc1Cl (configuration not stated)
Result :: inactive

Query :: Field: outcome | Entry: CC1C(c2ccccc2)=CCON1c1ccccc1 (configuration not stated)
Result :: inactive

Query :: // return assay outcome for Clc1ccc(-c2cn3c(nc4ccccc43)c(/C=C/c3cccs3)n2)cc1
Result :: inactive

Query :: GET /call?item= CC1(C)C2C/C(=C\c3ccccc3)C(=O)C1C2 (configuration not stated) returns the recorded outcome of this test.
Result :: inactive

Query :: Could you check what this test reported for CCN(CC)CCC(=O)/C=C/c1ccc(C)cc1 ?
Result :: inactive

Query :: Could you check what this test reported for CC1(C)Oc2ccc3ccc(=O)oc3c2C(O)C1O (configuration not stated) ?
Result :: inactive

Query :: Outcome? C=C1C(C(=O)O)C1C(=O)O (configuration not stated)
Result :: inactive

Query :: Identify the outcome logged in this assay for the compound shown: CN(C)CC1CCCC/C1=N/OC(=O)c1ccc(Cl)c(Cl)c1 (configuration not stated)
Result :: inactive

Query :: Hi, do you know how CCOC(=O)c1c(SCCCN2CCCCC2)n(-c2ccccc2)c(=S)n(-c2ccccc2)c1=O came out in this test?
Result :: inactive

Query :: Could you check what this test reported for O=C1Cc2c([nH]c3ccc(Cl)cc23)-c2ccccc2N1 ?
Result :: inactive

Query :: Recorded test outcome, item O=C(O)c1cccc(/N=N/c2c(S(=O)(=O)O)ccc3c2C(=O)c2ccccc2C3=O)c1O
Result :: inactive

Query :: Which outcome was assigned to Oc1ccc2c3c1OC1c4[nH]ncc4C[C@H]4[C@@H](C2)N(CC2CC2)CC[C@]314 (some centres not stated) in this test?
Result :: inactive

Query :: Which result was noted for this compound in the test: Cc1cccc2c3ccc4c(c3n(C)c12)C(=O)C=CC4=O
Result :: inactive

Query :: Hi, do you know how CC(C)(O)C1COC2=C1C(=O)c1ccccc1C2=O (configuration not stated) came out in this test?
Result :: inactive

Query :: Query: recorded result category for CCOC(=O)COc1c(OC)cc(C2C3=C(COC3=O)Oc3cc4c(cc32)OCO4)cc1OC (configuration not stated) in this test
Result :: inactive

Query :: Answer briefly: the call reported for CCOC(=O)Oc1cc2c(c(OC)c1OC)-c1ccc(OC)c(=O)cc1C(NC(C)=O)CC2 (configuration not stated) in this assay.
Result :: active

Query :: # outcome recorded in this test, key = Cc1ccc(C(=O)N/N=C(\N=N\c2cccc(Cl)c2)c2ccc(N(CCC#N)CCC#N)cc2C)cc1
Result :: inactive

Query :: What call does the record list for COC(=O)C1CN=CN1CCc1ccccc1 (configuration not stated) ?
Result :: inactive

Query :: Could you check what this test reported for CCCC(=O)c1c(NOC2OCC(OC(C)=O)C(OC(C)=O)C2OC(C)=O)nc(OC)n(C)c1=O (configuration not stated) ?
Result :: inactive

Query :: Field: outcome | Entry: COc1ccccc1/C=N/C12CC3CC(CC(C3)C1)C2
Result :: inactive
